src = PubChem BioAssay

Test system: Aerobactin synthetase IucA (Klebsiella pneumoniae hvKP1)
Test: Biochemical IucA enzyme inhibition primary screen of the Spectrum library (AID 1346200);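 note: 100% = wells without compound and 0% = wells lacking enzyme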
Settings: malachite green pyrophosphate, A620, at 8 µM, stronger effect = lower value
measured-attribute: activity remaining (%)
Respond numerically; units are % and should not be typed.

activity remaining reported for this compound CCN(CC)CCOC(=O)C(c1ccccc1)C1CCCCC1 (stereo unspecified) : 111

The measured activity remaining associated with COC(=O)C[C@H]1C(C)(C)C2(O)OC34CC2C(=O)[C@]1(C)C3CC[C@]1(C)C4=CC(=O)O[C@H]1c1ccoc1 (stereo partly specified) reads 105

# compound CN(C)C(=O)Oc1ccc[n+](C)c1 ; its activity remaining = 93.4

Please fill in: activity remaining reported for O=C(O)c1ccccc1OP(=O)(O)O = 116

Lab note: CC(C)N(CCC(C(N)=O)(c1ccccc1)c1ccccn1)C(C)C (stereo unspecified) gave activity remaining of 102

Record CCNc1nc(Cl)nc(NCC)n1 , field activity remaining: 94.3

----------
Test system: Aerobactin synthetase IucA (Klebsiella pneumoniae hvKP1)
Test: Biochemical IucA enzyme inhibition primary screen of the Spectrum library (AID 1346200);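 note: 100% = wells without compound and 0% = wells lacking enzyme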
Settings: malachite green pyrophosphate, A620, at 8 µM, stronger effect = lower value
Examples of molecules with documented activity remaining follow.
The reply should be a number in %, with the unit left off.

molecule	assay-target	result-units	activity remaining
COc1ccc(C(=O)CC(=O)O)c2c1C=CC(C)(C)O2	Aerobactin synthetase IucA (Klebsiella pneumoniae hvKP1)	%	108
C1N2CN3CN1CN(C2)C3	Aerobactin synthetase IucA (Klebsiella pneumoniae hvKP1)	%	104
CN(C)/N=N/c1nc[nH]c1C(N)=O	Aerobactin synthetase IucA (Klebsiella pneumoniae hvKP1)	%	107
C=C1c2c(Cl)ccc(O)c2C(O)=C2C(=O)[C@]3(O)C(O)=C(C(N)=O)C(=O)[C@@H](N(C)C)[C@@H]3[C@@H](O)[C@H]12	Aerobactin synthetase IucA (Klebsiella pneumoniae hvKP1)	%	109
NCCCCCC(=O)O	Aerobactin synthetase IucA (Klebsiella pneumoniae hvKP1)	%	113

Kindly review the next molecule as well.
Please fill in: activity remaining reported for C=CCCCCCCCCCCCC(O)CC(O)COC(C)=O (stereo unspecified) (tested in a mixture with another compound) = 81.7

----------
Assay: suppressors of polyQ aggregation in yeast, 75Q-TubU reporter (AID 1593)
Details: Yeast 75Q polyglutamine aggregation reporter
This listing pairs molecules with measured score.
Returns: the value as a bare number; no unit string appended.

molecule	score
C[C@@H]1O[C@@H](O[C@H]2C[C@@H](O)[C@]3(CO)C4C(CC[C@]3(O)C2)[C@@]2(O)CC[C@H](C3=CC(=O)OC3)[C@@]2(C)C[C@H]4O)[C@H](O)[C@H](O)[C@H]1O (some centres undefined)	1.02
CCN1C[C@@]2(COC)C3[C@@H](OC)[C@H]4[C@@H]1[C@]3(C(OC)C[C@H]2O)C1C[C@@]2(O)[C@H](OC(=O)c3ccccc3)C1[C@]4(OC(C)=O)[C@@H](O)[C@@H]2OC (some centres undefined)	0.9
CO[C@H]1[C@H](O)[C@@H](O[C@H]2CC[C@]3(C=O)C4CC[C@]5(C)[C@@H](C6=CC(=O)OC6)CC[C@]5(O)C4CC[C@@H]3C2)O[C@@H](C)[C@@H]1O (some centres undefined)	1.12

The record that follows has no score shown yet.
Field score (entry O=[N+]([O-])O[C@H]1CO[C@H]2[C@@H]1OC[C@H]2O[N+](=O)[O-] ) reads 1.7
